Just for reference, patent US20240228562A1 is where these values come from.

Biological target: T1, Human CTGF with a human IgG1 Fc Tag (Homo sapiens, UniProt P29279, H83D)
T1 construct: purchased Creative Biomart
T1 sequence (P29279 with tags, fused parts or gaps H83D): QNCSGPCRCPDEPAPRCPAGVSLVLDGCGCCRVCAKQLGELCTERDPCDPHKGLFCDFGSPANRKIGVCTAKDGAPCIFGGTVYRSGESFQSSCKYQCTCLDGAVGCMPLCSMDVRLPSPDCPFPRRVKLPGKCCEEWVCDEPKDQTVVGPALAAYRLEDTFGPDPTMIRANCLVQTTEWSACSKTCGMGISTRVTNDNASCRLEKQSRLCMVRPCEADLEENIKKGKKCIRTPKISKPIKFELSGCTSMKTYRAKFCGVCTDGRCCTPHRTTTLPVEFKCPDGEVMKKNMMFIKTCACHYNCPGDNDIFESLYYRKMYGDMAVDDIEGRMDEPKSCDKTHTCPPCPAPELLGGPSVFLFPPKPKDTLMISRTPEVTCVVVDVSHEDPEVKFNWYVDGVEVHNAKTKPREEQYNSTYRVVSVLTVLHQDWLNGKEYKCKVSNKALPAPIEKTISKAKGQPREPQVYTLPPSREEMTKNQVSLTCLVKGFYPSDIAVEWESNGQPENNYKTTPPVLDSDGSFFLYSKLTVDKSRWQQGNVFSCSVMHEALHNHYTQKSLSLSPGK
Experiment: SPR epitope analysis (simultaneous binding)
Conditions: SPR, mixed and injected simultaneously at 750 nM or 1000 nM
PROPERTY_NAME: Simultaneous binding with SEQ ID NO: 7

{"MOLECULE": "SEQ ID NO: 25: parent CTGF-binding hNGAL lipocalin mutein (protein, lipocalin mutein) QDSTSDLIPAPPLSKVPLQQNFQDNQFHGKWYVVGMAGNFRLREDKDPSKMGATIYELKEDKSYNVTQVQFDDKKCLYVIETFVPGSQPGEFTLGAIKSFPGFTSQLVRVVSTNYNQHAMVFFKKVYQNREVFWITLYGRTKELTSELKENFIRFSKSLGLPENHIVFPVPIDQCIDG", "PROPERTY_NAME": "Simultaneous binding with SEQ ID NO: 7", "RESULT": "yes"}
{"MOLECULE": "SEQ ID NO: 29: parent CTGF-binding hNGAL lipocalin mutein (protein, lipocalin mutein) QDSTSDLIPAPPLSKVPLQQNFQDNQFHGKWYVVGWAGNIKLREDKDPFKMSATIYELKEDKSYNVTEVVFEQKKCHYIIKTFVPGSQPGEFTLGDIKSPPGETSSLVRVVSTNYNQHAMVFFKKVFQNREFFWITLYGRTKELTSELKENFIRFSKSLGLPENHIVFPVPIDQCIDG", "PROPERTY_NAME": "Simultaneous binding with SEQ ID NO: 7", "RESULT": "yes"}
{"MOLECULE": "SEQ ID NO: 7: parent CTGF-binding hNGAL lipocalin mutein (protein, lipocalin mutein) QDSTSDLIPAPPLSKVPLQQNFQDNQFHGKWYVVGLAGNYGLRTDKRPSKMFATIYELKEDKSYDVTSVRFEQERCHYTIRTFVPGSQPGEFTTGSIKSRPGQTSSLVRVVSTNYNQHAMVFFKSVIQNREYFAITLYGRTKELTSELKENFIRFSKSLGLPENHIVFPVPIDQCIDG", "PROPERTY_NAME": "Simultaneous binding with SEQ ID NO: 7", "RESULT": "no"}
{"MOLECULE": "SEQ ID NO: 9: parent CTGF-binding hNGAL lipocalin mutein (protein, lipocalin mutein) QDSTSDLIPAPPLSKVPLQQNFQDNQFHGKWYVVGLAGNKILRIDKQPAKMFATIYELKEDKSYDVTSVRFEARSCSYTIKTFVPGSQPGEFTAGNIKSAPGQTSTLVRVVSTNYNQHAMVFFKHVSQNRETFVITLYGRTKELTSELKENFIRFSKSLGLPENHIVFPVPIDQCIDG", "PROPERTY_NAME": "Simultaneous binding with SEQ ID NO: 7", "RESULT": "no"}
